targetUnderTest: Casein kinase I isoform alpha (Homo sapiens)
Sequence (P48729 whole entry, canonical isoform): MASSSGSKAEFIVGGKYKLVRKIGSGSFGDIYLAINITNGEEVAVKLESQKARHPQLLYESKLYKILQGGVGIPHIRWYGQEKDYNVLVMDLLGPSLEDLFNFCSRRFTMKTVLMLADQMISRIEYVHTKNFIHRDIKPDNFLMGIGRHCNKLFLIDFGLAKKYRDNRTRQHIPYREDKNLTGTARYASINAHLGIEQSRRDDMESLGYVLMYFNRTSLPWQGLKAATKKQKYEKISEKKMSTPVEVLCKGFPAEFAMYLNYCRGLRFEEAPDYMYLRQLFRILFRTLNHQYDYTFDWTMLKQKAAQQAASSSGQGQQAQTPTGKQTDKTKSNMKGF
assayComment: CSNK1A1-Inhibitory Activity Assay (High ATP)
measurementName: IC50 (nM)
The response must be a number in nM with no trailing unit.

Form field: reported IC50 of `O=C(Cc1cnco1)Nc1cc(-c2[nH]c3cccnc3c2-c2ccccn2)ccn1` 47
